# assay-name: Cell viability, MTT assay
# Type: cell-based
# setup-conditions: mouse; 100 µM, 48 h, MTT; read-out: viable cells
endpoint: viability at 48 h, 100 µM

Entry COCc1c(Br)c(O)c(O)c(Br)c1Br [Compound 2] ; viability at 48 h, 100 µM = ~100%
